organism: Homo sapiens; experiment: Selectivity for tryptase over trypsin
recordedEndpoint: Selectivity ratio

(a) Cl.NCCCC[C@H](NC(=O)C1CCCC1)C(=O)c1noc(Cc2ccc(OCCc3ccc(Cl)c(Cl)c3)cc2)n1
(b) COC(=O)N[C@@H](CCCCN)C(=O)c1noc(Cc2ccc(OCCc3ccc(Cl)c(Cl)c3)cc2)n1.Cl
Of the two listed items, a and b , which carries the larger Selectivity ratio figure? Field: selected label. Fill in the label of the entry you choose.
b
(b: 129, a: 46)

(1) CCCCCC(=O)N[C@@H](CCCCN)C(=O)c1noc(Cc2ccc(OCCc3ccc(Cl)c(Cl)c3)cc2)n1.Cl
(2) CC(C)OC(=O)N[C@@H](CCCCN)C(=O)c1noc(Cc2ccc(OCCc3ccc(Cl)c(Cl)c3)cc2)n1.Cl
Of the two listed items, 1 and 2 , which carries the larger Selectivity ratio figure? Field: selected label. Fill in the label of the entry you choose.
2

(P) Cl.NCCCC[C@H](NC(=O)c1ccccc1F)C(=O)c1noc(Cc2ccc(OCCc3ccc(Cl)c(Cl)c3)cc2)n1
(Q) CC(C)C(=O)N[C@@H](CCCCN)C(=O)c1noc(Cc2ccc(OCCc3ccc(Cl)c(Cl)c3)cc2)n1.Cl
Of the two listed items, P and Q , which carries the larger Selectivity ratio figure? Field: selected label. Fill in the label of the entry you choose.
P
(P: 177, Q: 18)

Data origin: ChEMBL document CHEMBL1138088
